Target: T1, hPRLR.mmh (soluble monomeric human PRLR) (human)
T1 construct: called soluble monomeric PRLR protein
T1 chain: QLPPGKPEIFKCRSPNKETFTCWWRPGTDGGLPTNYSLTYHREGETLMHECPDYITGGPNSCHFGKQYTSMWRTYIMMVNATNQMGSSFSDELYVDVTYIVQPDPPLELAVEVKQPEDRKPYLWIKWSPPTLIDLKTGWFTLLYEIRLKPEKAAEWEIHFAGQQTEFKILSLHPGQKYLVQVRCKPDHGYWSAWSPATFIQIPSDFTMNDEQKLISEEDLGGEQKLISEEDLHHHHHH
Test: SPR Biacore, 25 C, mAb capture
koff values by entry
Write down the numeric answer in s⁻¹ and omit the unit.

Take a look at these entries with their results.
H1H6765P (antibody, human IgG1, V domains shown, Human IgG1 Fc (H1H)) VH: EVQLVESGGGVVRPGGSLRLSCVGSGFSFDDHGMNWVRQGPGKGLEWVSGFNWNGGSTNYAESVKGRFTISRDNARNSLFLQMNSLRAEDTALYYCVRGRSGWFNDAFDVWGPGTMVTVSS VL: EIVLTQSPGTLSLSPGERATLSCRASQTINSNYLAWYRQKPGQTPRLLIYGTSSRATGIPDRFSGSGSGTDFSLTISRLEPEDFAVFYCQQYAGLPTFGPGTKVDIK
0.000113
H1H6781P (antibody, human IgG1, V domains shown, Human IgG1 Fc (H1H)) VH: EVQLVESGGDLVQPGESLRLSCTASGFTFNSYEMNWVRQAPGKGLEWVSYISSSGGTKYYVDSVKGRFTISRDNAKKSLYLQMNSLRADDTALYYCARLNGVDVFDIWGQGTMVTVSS VL: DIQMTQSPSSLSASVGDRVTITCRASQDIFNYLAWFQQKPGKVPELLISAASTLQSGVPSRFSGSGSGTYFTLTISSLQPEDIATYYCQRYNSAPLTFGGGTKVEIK
0.000127
H1H6803P (antibody, human IgG1, V domains shown, Human IgG1 Fc (H1H)) VH: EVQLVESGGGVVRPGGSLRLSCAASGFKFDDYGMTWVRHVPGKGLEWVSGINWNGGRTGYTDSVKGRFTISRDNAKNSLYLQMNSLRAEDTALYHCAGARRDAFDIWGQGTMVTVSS VL: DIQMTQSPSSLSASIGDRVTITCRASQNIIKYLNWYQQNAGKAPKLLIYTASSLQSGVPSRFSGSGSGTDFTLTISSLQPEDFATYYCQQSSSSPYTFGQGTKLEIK
0.000137
H1H6958N2 (antibody, human IgG1, V domains shown, Tested with human IgG1 Fc (H1H); also called H2M6958N2) VH: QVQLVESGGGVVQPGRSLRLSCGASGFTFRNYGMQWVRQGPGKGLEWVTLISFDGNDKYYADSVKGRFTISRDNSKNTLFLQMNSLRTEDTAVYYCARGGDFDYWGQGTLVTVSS VL: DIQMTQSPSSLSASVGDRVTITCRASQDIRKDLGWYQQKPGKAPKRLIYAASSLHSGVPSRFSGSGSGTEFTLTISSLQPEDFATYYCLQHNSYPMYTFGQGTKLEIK
0.000272
H1H6790P (antibody, human IgG1, V domains shown, Human IgG1 Fc (H1H)) VH: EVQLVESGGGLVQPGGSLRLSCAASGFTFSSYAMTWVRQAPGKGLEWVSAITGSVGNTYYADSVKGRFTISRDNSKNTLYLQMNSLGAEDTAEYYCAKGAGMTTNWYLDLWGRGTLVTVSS VL: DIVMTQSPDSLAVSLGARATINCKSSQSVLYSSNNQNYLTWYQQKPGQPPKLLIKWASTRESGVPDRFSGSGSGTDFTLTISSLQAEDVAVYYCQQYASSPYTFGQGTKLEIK
0.000799

# input for lookup
Task: # lookup: koff of H1H6793P (antibody, human IgG1, V domains shown, Human IgG1 Fc (H1H)) VH: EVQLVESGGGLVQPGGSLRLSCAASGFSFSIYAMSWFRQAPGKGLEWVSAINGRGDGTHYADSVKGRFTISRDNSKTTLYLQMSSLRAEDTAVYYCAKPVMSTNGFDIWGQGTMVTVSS VL: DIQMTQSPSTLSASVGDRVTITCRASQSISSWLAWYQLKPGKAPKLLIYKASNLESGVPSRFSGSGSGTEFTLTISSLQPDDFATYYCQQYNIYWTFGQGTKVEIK
Result: 0.000332
